Biological target: MBP-FoxP1dN (Mus musculus, UniProt P58462 326-579)
Sequence: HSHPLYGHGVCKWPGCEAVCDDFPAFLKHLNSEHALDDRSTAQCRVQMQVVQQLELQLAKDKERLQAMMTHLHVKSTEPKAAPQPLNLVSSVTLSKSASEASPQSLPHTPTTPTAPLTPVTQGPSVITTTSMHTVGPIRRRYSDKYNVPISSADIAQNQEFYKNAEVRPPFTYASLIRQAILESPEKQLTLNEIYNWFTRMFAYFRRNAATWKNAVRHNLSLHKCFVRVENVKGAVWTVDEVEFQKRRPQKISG
Assay: PD-seq (MBP pull-down with sequencing); 20 mM Tris-HCl pH 7.5, 100 mM NaCl, 1.5 mM MgCl2, 0.4 uM protein, 0.1 uM dsDNA library, 30 min, room temperature, amylose pull-down; high values mean tight binding
Settings: protein: recombinant; tags: His6-MBP; chain copies: 2; dsDNA, one strand shown
Whole data set: some 16,000 sequences, median “rpm ratio (pull-down/input)” near 0.94, cut for the highest 2% near 1.7. This excerpt belongs to a sample that is enriched for the highest values.
propertyName: binding signal

> print(dat)
                              residuestring    propertyname                                val
1  GATGATTGTTCTCCCAGCTGATGAATTTGGGTCTTCGAGTAAACAAATTTTCCTAATCTTTCTGTTCAAGCGCCATCTAC  binding signal  0.904 RPM ratio (pull-down/input)
2  GATGATTGTTCTCCCAGCTGATGAATTATTCGTTTCGAGTAAACAAATTTTCCTAATCTTTCTGTTCAAGCGCCATCTAC  binding signal   1.01 RPM ratio (pull-down/input)
3  GATGATTGTTCTCCCAGCTGATGAATTCGGACCGTCGAGTAAACAAATTTTCCTAATCTTTCTGTTCAAGCGCCATCTAC  binding signal  0.773 RPM ratio (pull-down/input)
4  GATGATTGTTCTCCCAGCTGATGAATTTCTACGATCGAGTAAACAAATTTTCCTAATCTTTCTGTTCAAGCGCCATCTAC  binding signal  0.948 RPM ratio (pull-down/input)
5  GATGATTGTTCTCCCAGCTGATGAATTGTGATCGTCGAGTAAACAAATTTTCCTAATCTTTCTGTTCAAGCGCCATCTAC  binding signal   1.16 RPM ratio (pull-down/input)
6  GATGATTGTTCTCCCAGCTGATGAATTTACCATCTCGAGTAAACAAATTTTCCTAATCTTTCTGTTCAAGCGCCATCTAC  binding signal   1.19 RPM ratio (pull-down/input)
7  GATGATTGTTCTCCCAGCTGATGAATTCTCTCCCTCGAGTAAACAAATTTTCCTAATCTTTCTGTTCAAGCGCCATCTAC  binding signal  0.835 RPM ratio (pull-down/input)
